Tested Target: Muscarinic acetylcholine receptor M4 (Homo sapiens) (UniProt P08173)
Sequence (whole entry): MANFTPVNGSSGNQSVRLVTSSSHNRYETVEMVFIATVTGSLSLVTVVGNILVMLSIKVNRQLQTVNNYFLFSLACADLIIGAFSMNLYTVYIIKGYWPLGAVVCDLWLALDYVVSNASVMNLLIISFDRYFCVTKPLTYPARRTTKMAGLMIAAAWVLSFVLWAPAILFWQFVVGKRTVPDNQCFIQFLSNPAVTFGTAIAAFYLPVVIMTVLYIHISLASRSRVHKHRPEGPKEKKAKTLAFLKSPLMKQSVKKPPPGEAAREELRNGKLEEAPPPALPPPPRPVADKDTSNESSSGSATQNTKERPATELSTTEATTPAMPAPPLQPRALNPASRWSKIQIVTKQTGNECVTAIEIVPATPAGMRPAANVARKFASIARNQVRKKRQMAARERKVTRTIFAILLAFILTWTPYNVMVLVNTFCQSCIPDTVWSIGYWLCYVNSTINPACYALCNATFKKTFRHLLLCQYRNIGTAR
Conditions Used: Compound concentration 10 µM; call rule not given here
Valid outcomes are listed here; reply with one: y (active), n (inactive)

Prompt line: What did the test return for "COc1cc2nc(N3CCN(C(=O)c4ccco4)CC3)nc(N)c2cc1OC" ?
Response line: n

Prompt line: # fetch the recorded call for "NC[C@@H]1O[C@H](C23CC4CC(CC(C4)C2)C3)Cc2c1ccc(O)c2O" here
Response line: n

Prompt line: Record request — test call for "CN1CCN(c2ccc(Nc3c4ccccc4nc4ccccc34)cc2)CC1"
Response line: n

Prompt line: // return assay outcome for CCOC(=O)c1c(C)[nH]c2ccc3c(c12)CN1CCc2cc(OC)ccc2C1O3 (stereo unspecified)
Response line: y

Prompt line: Write down the call the test reported for this compound. Item: "N#Cc1c(N)nc(SCc2csc(-c3ccc(Cl)cc3)n2)c(C#N)c1-c1ccc(OCCO)cc1"
Response line: n

Prompt line: Give the logged outcome of this assay for the following compound: "CC1=C2C[C@H]3[C@@H](CC=C4C[C@@H](O)CC[C@@]43C)[C@@H]2CC[C@]12O[C@@H]1C[C@H](C)CN[C@H]1[C@H]2C"
Response line: n

----------
Tested Target: Alpha-1A adrenergic receptor (Homo sapiens) (UniProt P35348)
Sequence (P35348 whole entry): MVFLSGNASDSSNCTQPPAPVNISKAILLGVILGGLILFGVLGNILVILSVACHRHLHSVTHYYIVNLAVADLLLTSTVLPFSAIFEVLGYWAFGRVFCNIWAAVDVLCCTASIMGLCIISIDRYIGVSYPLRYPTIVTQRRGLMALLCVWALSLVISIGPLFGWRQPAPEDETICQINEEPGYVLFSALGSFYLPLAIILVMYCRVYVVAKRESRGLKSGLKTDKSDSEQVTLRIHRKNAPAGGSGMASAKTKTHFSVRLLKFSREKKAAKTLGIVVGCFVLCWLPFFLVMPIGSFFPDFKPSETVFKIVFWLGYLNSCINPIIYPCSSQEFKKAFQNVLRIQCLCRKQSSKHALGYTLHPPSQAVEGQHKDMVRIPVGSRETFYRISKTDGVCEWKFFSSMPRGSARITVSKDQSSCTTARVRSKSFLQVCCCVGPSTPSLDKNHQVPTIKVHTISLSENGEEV
Conditions Used: Compound concentration 10 µM
Description: PDSP Primary Binding target: ADRA1A - Compounds are tested at 10 uM concentration, plate are incubated at room temperature in the dark for 90 minutes. Reaction are stopped by vacuum filtration onto 0.3% polyethyleneimine soaked filter mats using Filtermate harvester. Scintilation cocktail is then melted onto microwave-dried filters on a hot plate and the radio activity is counted in Microbia counter.
Quantity Name: inhibition (%)
Dear colleague, please return just the value in %, with no unit written.

Compound	Units Label	inhibition
COc1ccc(OC(F)(F)F)cc1CN[C@H]1CCCN[C@H]1c1ccccc1	%	31.1
COc1ccc(NC(=O)c2ccc(-c3ccc(-c4noc(C)n4)cc3C)cc2)cc1OCCN(C)C	%	17.3
CO[C@@H]1COCC[C@@H]1N[C@@H]1CC[C@@](C(=O)N2CCc3ncc(C(F)(F)F)cc3C2)(C(C)C)C1	%	-0.61
Clc1cccc(COc2cncc(N3CCNCC3)n2)c1	%	11.2

Prompt line: # returns recorded inhibition (system: Alpha-1A adrenergic receptor (Homo sapiens) (UniProt P35348)) for "Cc1cc([C@@H](C)Nc2cccc(-c3cc(C)c(C(=O)N[C@@H](C)C(=O)O)c(C)c3)c2)ccc1Cl"
Response line: 11.3

Prompt line: Form field - read-out: inhibition; system: Alpha-1A adrenergic receptor (Homo sapiens) (UniProt P35348); submitted item: "O=C(O)CC1CCC2(CC1)CCN(c1cc(OC(F)(F)F)ccc1Cl)CC2"
Response line: -7.1

Prompt line: // fetch Alpha-1A adrenergic receptor (Homo sapiens) (UniProt P35348) inhibition for "CCCCc1nc(Cl)c(CO)n1Cc1ccc(-c2ccccc2-c2nnn[nH]2)cc1"
Response line: -0.59

Prompt line: What measured inhibition is associated with CC(C)NCC(O)c1ccc(N)c(C#N)c1 (stereo not given) on Alpha-1A adrenergic receptor (Homo sapiens) (UniProt P35348)?
Response line: -0.15

Prompt line: Request: inhibition, test system Alpha-1A adrenergic receptor (Homo sapiens) (UniProt P35348), entry "CN1CC(=O)N=C1NC(=O)Nc1cccc(Cl)c1"
Response line: 7.79

Prompt line: Which inhibition is reported with Alpha-1A adrenergic receptor (Homo sapiens) (UniProt P35348) for this entry: "CC[C@@H]1CN2C(=O)N(C)c3nc(-c4ccccc4)[nH]c3C2=N1" ?
Response line: 4.28

----------
Tested Target: 5-hydroxytryptamine receptor 2B (Homo sapiens)
Conditions Used: Compound concentration 10 µM
Description: PDSP Primary Binding target: HTR2B - Compounds are tested at 10 uM concentration, plate are incubated at room temperature in the dark for 90 minutes. Reaction are stopped by vacuum filtration onto 0.3% polyethyleneimine soaked filter mats using Filtermate harvester. Scintilation cocktail is then melted onto microwave-dried filters on a hot plate and the radio activity is counted in Microbia counter.
Outcome: Criterion met for inhibition of at least 50%; Criterion not met for anything lower.

Example cases with answers are listed next.
Compound	Label Value
COc1cc(-n2cnc3cc(-c4ccc(Cl)cc4)sc3c2=O)ccc1OCCN1CCCC1	Criterion met
O=C(O)Cn1c(C(=O)Nc2nc(-c3ccccc3Cl)cs2)cc2ccccc21	Criterion not met
CN(C)C(=O)C(CCN1CCC(O)(c2ccc(Cl)cc2)CC1)(c1ccccc1)c1ccccc1	Criterion met
C[C@H](Cc1cc2c(c(C(N)=O)c1)N(CCCO)CC2)NCCOc1ccccc1OCC(F)(F)F	Criterion met
O=C(Cc1ccc(Cl)c(Cl)c1)N1CCCC[C@H]1CN1CCCC1	Criterion not met
COc1ccccc1N1CCN(CCCCNC(=O)c2ccc3ccccc3c2)CC1	Criterion met
COc1cc2nc(N3CCN(C(=O)c4ccco4)CC3)nc(N)c2cc1OC	Criterion met
Cc1ccc2c(c1)c1c(n2CCc2ccc(C)nc2)CCN(C)C1	Criterion met
Cc1nc2sccn2c(=O)c1CCN1CCC(=C(c2ccc(F)cc2)c2ccc(F)cc2)CC1	Criterion met
CC(C)[C@H](CO)Nc1nc(Nc2cccc(Cl)c2)c2ncn(C(C)C)c2n1	Criterion met

Prompt line: Tell me whether inhibition is at least 50% here: "Cc1cc([C@@H](C)Nc2cccc(-c3cc(C)c(C(=O)N[C@@H](C)C(=O)O)c(C)c3)c2)ccc1Cl"
Response line: Criterion met

Prompt line: Given "Cc1c(P(=S)(c2ccccc2)c2ccccc2)n2ccccc2[n+]1C/C=C/c1ccccc1" , state whether its inhibition is at least 50%.
Response line: Criterion not met

Prompt line: Is inhibition for "CCCn1c(=O)c2[nH]c(-c3cnn(Cc4cccc(C(F)(F)F)c4)c3)nc2n(CC)c1=O" at or above 50%?
Response line: Criterion not met

Prompt line: Is reported inhibition greater than or equal to 50% here: "COc1ccnc(N2CCC3(CCCN(Cc4c[nH]c5ccccc45)C3=O)CC2)n1"
Response line: Criterion not met

Prompt line: Is inhibition for "C[C@]1(C(=O)N(CCCC(=O)O)Cc2cccc(Cl)c2)CCN1C(=O)c1csc2ccccc12" at or above 50%?
Response line: Criterion not met

Prompt line: API: above_or_equal(metric=inhibition, cutoff=50%) for item "CN(C)S(=O)(=O)c1ccc(NC(=S)N2CCC(C(O)(c3ccccc3)c3ccccc3)CC2)cc1"
Response line: Criterion not met

Prompt line: Say whether "CC1CCN(CC[C@H]2CCCN2S(=O)(=O)c2cccc(O)c2)CC1" shows inhibition of 50% or more.
Response line: Criterion not met

Prompt line: Is the recorded value of inhibition equal to or greater than 50% for this compound? "CO[C@@H]1COCC[C@@H]1N[C@@H]1CC[C@@](C(=O)N2CCc3ncc(C(F)(F)F)cc3C2)(C(C)C)C1"
Response line: Criterion not met

Prompt line: Kindly determine if inhibition recorded for "CCCn1c(=O)c2nc(C34CC5CC(CC3C5)C4)[nH]c2n(CCC)c1=O" is above or exactly 50%.
Response line: Criterion not met

Prompt line: Determine whether measured inhibition meets or exceeds 50% for "Cc1cc(C)cc(-c2cnc3cc(Cl)c(-c4cccc(O)c4)cc3c2OCCCN)c1"
Response line: Criterion met

Prompt line: In plain terms: is recorded inhibition at least 50% for "Cc1nc(-c2ccc(C(F)(F)F)cc2)sc1COc1ccc([C@H](CC(=O)O)c2ccon2)cc1" ?
Response line: Criterion not met

Prompt line: Is the recorded value of inhibition equal to or greater than 50% for this compound? "Cc1ccccc1N1CCN(S(=O)(=O)C[C@]23CC[C@H](C[C@@H]2NC(=O)[C@@H](N)CCS(C)(=O)=O)C3(C)C)CC1"
Response line: Criterion not met

Prompt line: Is reported inhibition greater than or equal to 50% here: "Cc1nc(C(=O)N2CCC[C@H]2Cc2nnc(-c3ccccc3)o2)c(-c2ccccc2F)s1"
Response line: Criterion met

Prompt line: Determine whether measured inhibition meets or exceeds 50% for "CC(C)(C)NC[C@H](O)COc1nsnc1N1CCOCC1"
Response line: Criterion not met

Prompt line: Say whether "CCCCCNC(=O)NS(=O)(=O)c1cc([N+](=O)[O-])ccc1NC1CCCCC1" shows inhibition of 50% or more.
Response line: Criterion not met

Prompt line: Reported inhibition reaches at least 50% for "CNC[C@H](O)c1cccc(O)c1" ?
Response line: Criterion not met

Prompt line: Does the reported inhibition for "Cc1cc(NC(=O)Nc2ccc(N(C)C)cc2)c2cc(F)cc(F)c2n1" fall at or above the 50% mark?
Response line: Criterion met

Prompt line: Check this compound for inhibition at or above 50%: "NC(=O)[C@@H]1CCCN1C(=O)[C@H](Cc1c[nH]cn1)NC(=O)[C@@H]1CCC(=O)N1"
Response line: Criterion not met

Prompt line: Is it the case that "Cc1c(F)cccc1NC(=O)Nc1ccc(Cl)c(S(=O)(=O)[C@H]2CCCNC2)c1O" has inhibition reaching or exceeding 50%?
Response line: Criterion not met

Prompt line: I'd appreciate it if you could say whether CN1C2CCC1CC(OC(c1ccc(F)cc1)c1ccc(F)cc1)C2 (stereo not given) has inhibition at least equal to 50%.
Response line: Criterion met

Prompt line: Record "N#Cc1c(N)nc(SCC(N)=O)c(C#N)c1-c1ccc(OCC2CC2)cc1" ; criterion: inhibition no lower than 50%. Met?
Response line: Criterion not met

Prompt line: Given the entry "O=c1ccn([C@@H]2O[C@H](COP(=O)(O)OP(=O)(O)O)[C@@H](O)[C@H]2O)c(=O)[nH]1" , answer whether its inhibition meets or surpasses 50%.
Response line: Criterion not met
